Data origin, for the record: the supplement of paper PMC9233669

Tested on: biotinyl-Trp-oxazolone
Test: self-aminoacylation, catalytic enhancement (BWO) (fold over background); higher = more active; k-Seq, kA / k0A0; sequences stand for … in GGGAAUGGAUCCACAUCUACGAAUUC…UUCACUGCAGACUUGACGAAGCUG
Variants at the floor of the assay were thinned out.
measured-endpoint: self-aminoacylation
// response body must contain only the number

See these solved cases before continuing.
CUACUUCAAACAAUCGAACUG [Fam1A.1 aminoacylation ribozyme variant] | 0.468
CCAGACUUCAAGCAAUCGAUC [Fam1B.1 aminoacylation ribozyme variant] | 0.639
CCACACUUUAAGCAAUCGGUA [Fam1B.1 aminoacylation ribozyme variant] | 0.553
CUACUACAAACCAUCGGUCUG [Fam1A.1 aminoacylation ribozyme variant] | 0.765
AUUCACCUAGGUCAUAGAGUG [Fam2.2 aminoacylation ribozyme variant] | 2.12

Query string: Name the recorded self-aminoacylation for AAGUUUGCUAAAAGUCGCAGG [Fam3.1 aminoacylation ribozyme variant] .
Result string: 1.3

* * *

Test system: biotinyl-Trp-oxazolone
Assay: self-aminoacylation, catalytic enhancement (BWO) (fold over background); higher = more active; k-Seq, kA / k0A0; sequences stand for … in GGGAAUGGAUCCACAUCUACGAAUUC…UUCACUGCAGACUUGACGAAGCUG
This sample holds only a part of the variants without activity.
The sequences listed here are annotated with their self-aminoacylation.

Take a look at these entries with their results.
AUUCACCUAGGUCAUAGCGUG [Fam2.2 aminoacylation ribozyme variant] | 3.55
AAGUUUGAUAAGAGUCGCAAG [Fam3.1 aminoacylation ribozyme variant] | 1.33
AAUCACCUAGGUCAUCGGGAG [Fam2.2 aminoacylation ribozyme variant] | 1.55
CCACACUUCCAGCAAUCGGUC [Fam1B.1 aminoacylation ribozyme variant] | 0.872

Query string: For the sequence GCACCCUUCAAGCAAUCGGUC [Fam1B.1 aminoacylation ribozyme variant] , what self-aminoacylation is on record?
Result string: 4.63

Query string: Give its self-aminoacylation value. Item: CCACACUCCACGCAAUCGGUC [Fam1B.1 aminoacylation ribozyme variant]
Result string: 1.18

Query string: Could you share which self-aminoacylation value was measured for CCACACUUCCUGCAAUCGGUC [Fam1B.1 aminoacylation ribozyme variant] ?
Result string: 0.961

Query string: Record request: self-aminoacylation value, item AUUACCCUAGUCAACGAGUGA [Fam2.1 aminoacylation ribozyme variant]
Result string: 6.9

Query string: What measured self-aminoacylation goes with AUUAACCUGGUAAUCGAGUGA [Fam2.1 aminoacylation ribozyme variant] ?
Result string: 11.3

Query string: Returns the measured self-aminoacylation for the input sequence. Input: CGACUACAAACAAUCGGUCUG [Fam1A.1 aminoacylation ribozyme variant]
Result string: 1.31

Query string: Given CCACUUCAAACAAUCGGUCAG [Fam1A.1 aminoacylation ribozyme variant] , state its recorded self-aminoacylation.
Result string: 9.79

Query string: Please give the measured self-aminoacylation for this sequence: AUUCAUCUAGGUCAUCGGGUU [Fam2.2 aminoacylation ribozyme variant]
Result string: 2.36

Query string: Request the reported self-aminoacylation associated with AUUACCCUGGUCAUCGGCUGA [Fam2.1 aminoacylation ribozyme variant]
Result string: 2.77

Query string: What does the data say about its self-aminoacylation? Entry: AUUCACCUCGGUAAUCGGGUG [Fam2.2 aminoacylation ribozyme variant]
Result string: 4.41

* * *

System: biotinyl-Val-oxazolone
Assay: self-aminoacylation, catalytic enhancement (BVO) (fold over background); higher = more active; k-Seq, kA / k0A0; sequences stand for … in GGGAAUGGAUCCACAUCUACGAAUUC…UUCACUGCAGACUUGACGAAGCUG
Variants at the floor of the assay were thinned out.
measured-endpoint: self-aminoacylation
Answer field: number only, no words.

Recorded self-aminoacylation, per entry:
CCACACUUCAACCAAUCUGUC [Fam1B.1 aminoacylation ribozyme variant] | 0.607
AUUCACCUAGGUUAUCGGAUG [Fam2.2 aminoacylation ribozyme variant] | 0.986
UUUCACCUAGGUCAUCGUGUG [Fam2.2 aminoacylation ribozyme variant] | 1.27
AUUCCCCUGGGUCAUCGGGUG [Fam2.2 aminoacylation ribozyme variant] | 9.66

Query string: Find the recorded self-aminoacylation belonging to AAGUAUGCUAAUAGUCGCAAU [Fam3.1 aminoacylation ribozyme variant] and report it.
Result string: 1.52

Query string: For the sequence shown here, CGACAUUUCAAGCAAUCGGUC [Fam1B.1 aminoacylation ribozyme variant] , give the reported self-aminoacylation.
Result string: 1.17

Query string: Which self-aminoacylation is reported for this sequence? CAACUUCAAACCAUCGGUCUG [Fam1A.1 aminoacylation ribozyme variant]
Result string: 1.1

Query string: Requested read-out: self-aminoacylation. Entry: AUUACCCUGAUCACCGAGUGA [Fam2.1 aminoacylation ribozyme variant]
Result string: 3.74

Query string: Entry AAUCACCUAUGUCAUCGGGUG [Fam2.2 aminoacylation ribozyme variant] : reported self-aminoacylation = ?
Result string: 3.29

* * *

Catalogue of sequences with associated self-aminoacylation
System: biotinyl-Ile-oxazolone
Test: self-aminoacylation, catalytic enhancement (BIO) (fold over background); higher = more active; k-Seq, kA / k0A0; sequences stand for … in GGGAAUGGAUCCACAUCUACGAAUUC…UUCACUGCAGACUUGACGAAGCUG
Fewer inactive variants are shown than the library holds.

Below, each entry is followed by its recorded self-aminoacylation result.
AUUACCCUGGUGCUCGAGUGA [Fam2.1 aminoacylation ribozyme variant] | 2.14
AGUACUCUGGUCAUCGAGUGA [Fam2.1 aminoacylation ribozyme variant] | 3.14

Query string: Recorded self-aminoacylation of UUUCCCCUAGGUCAUCGGGUG [Fam2.2 aminoacylation ribozyme variant] , please.
Result string: 6.97

Query string: # lookup: self-aminoacylation of AAAUUUGCCAAUAGUCGCAAG [Fam3.1 aminoacylation ribozyme variant]
Result string: 1.77

Query string: Quick one: self-aminoacylation of AUUACCCUGGUCUUCCAGUGA [Fam2.1 aminoacylation ribozyme variant] ?
Result string: 3.79

Query string: Entry AAGAUUACUAAUAGUCGCAAG [Fam3.1 aminoacylation ribozyme variant] : reported self-aminoacylation = ?
Result string: 1.6

Query string: // returns reported self-aminoacylation for input AUUCACCUAGGUUAACGGGUG [Fam2.2 aminoacylation ribozyme variant]
Result string: 2

Query string: Please give the measured self-aminoacylation for this sequence: AUUACCCGGGUCACCGAGUGA [Fam2.1 aminoacylation ribozyme variant]
Result string: 6.79

Query string: Item AUUACCCUGGUCAUCGCGCGA [Fam2.1 aminoacylation ribozyme variant] has what recorded self-aminoacylation?
Result string: 5.07

* * *

System: biotinyl-Met-oxazolone
Experiment: self-aminoacylation, catalytic enhancement (BMO) (fold over background); higher = more active; k-Seq, kA / k0A0; sequences stand for … in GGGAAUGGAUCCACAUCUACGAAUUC…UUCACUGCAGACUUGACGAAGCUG
This sample holds only a part of the variants without activity.
self-aminoacylation values by entry
I'd appreciate a reply containing only the number, no unit.

The following sequences have reported results that may help.
AUUACCGUGAUCAUCGAGUGA [Fam2.1 aminoacylation ribozyme variant] | 9.07
AUUACCCUAGUCAUCGAGUAA [Fam2.1 aminoacylation ribozyme variant] | 1.36
AUCCACUUAGGUCAUCGGGUG [Fam2.2 aminoacylation ribozyme variant] | 6.88

Query string: Param item = AAUACCGUGGUCAUCGAGUGA [Fam2.1 aminoacylation ribozyme variant] ; retrieve measured self-aminoacylation.
Result string: 5.12

Query string: What does the data say about its self-aminoacylation? Entry: ACGUUUGCUCAUAGUCGCAAG [Fam3.1 aminoacylation ribozyme variant]
Result string: 1.88

Query string: What value of self-aminoacylation has been reported for the following sequence? AAGUGUGCUAAUAGUCUCAAG [Fam3.1 aminoacylation ribozyme variant]
Result string: 1.4

Query string: What value of self-aminoacylation has been reported for the following sequence? CUGCAUCAAACAAUCGGUCUG [Fam1A.1 aminoacylation ribozyme variant]
Result string: 1.13

Query string: Consider the sequence shown here: AUUACCCUGGUCAUCGAGAAA [Fam2.1 aminoacylation ribozyme variant] What is its recorded self-aminoacylation?
Result string: 2.8

Query string: Any idea what self-aminoacylation was measured for AUUCAUCUAGGUCUUCGGGUG [Fam2.2 aminoacylation ribozyme variant] ?
Result string: 4.49

Query string: Query: self-aminoacylation; subject: AAGUUUGCUAAUGGGCGCAAG [Fam3.1 aminoacylation ribozyme variant]
Result string: 0.695

Query string: Please give the measured self-aminoacylation for this sequence: AUUUACCUAGGACAUCGGGUG [Fam2.2 aminoacylation ribozyme variant]
Result string: 2.48

Query string: Given the sequence CCACACUUCCAGCAGUCGGUC [Fam1B.1 aminoacylation ribozyme variant] , what is its reported self-aminoacylation?
Result string: 1.14

Query string: Recorded self-aminoacylation for AAGUAUGCUAAUAGUCGAAAG [Fam3.1 aminoacylation ribozyme variant] , please?
Result string: 1.7

Query string: Please report the recorded self-aminoacylation for AUUCACCUCUGUCAUCGGGUG [Fam2.2 aminoacylation ribozyme variant] .
Result string: 7.32

Query string: // self-aminoacylation lookup, key: AUUCAUCUCGGUCAUCGGGUG [Fam2.2 aminoacylation ribozyme variant]
Result string: 6.97

Query string: Which self-aminoacylation reading was recorded for the sequence ACGUUUGGUAAUAGUCGCAAG [Fam3.1 aminoacylation ribozyme variant] ?
Result string: 1.54

Query string: Form field: reported self-aminoacylation of AUUAACCUAGAUCAUCGGGUG [Fam2.2 aminoacylation ribozyme variant]
Result string: 2.81

Query string: Request the reported self-aminoacylation associated with AAGUUUGCUAAUAGUCUCCAG [Fam3.1 aminoacylation ribozyme variant]
Result string: 0.855

Query string: Item under review: UUUCCCCUAGGUCAUCGGGUG [Fam2.2 aminoacylation ribozyme variant] . Reported self-aminoacylation?
Result string: 11.8

Query string: What self-aminoacylation value was documented for this sequence, AUUCACCAAGGUCGUCGGGUG [Fam2.2 aminoacylation ribozyme variant] ?
Result string: 2.2

Query string: # get_value(readout='self-aminoacylation', item= ACGUUUGCUAAUAGUCGCCAG [Fam3.1 aminoacylation ribozyme variant] )
Result string: 2.26

Query string: Requested field: self-aminoacylation. Item: AUUACCCUGGUCAGCGACUGA [Fam2.1 aminoacylation ribozyme variant]
Result string: 1.3

Query string: Could you tell me which self-aminoacylation is on file for GUCACCCUGGUCAUCGAGUGA [Fam2.1 aminoacylation ribozyme variant] ?
Result string: 7.39

Query string: Recorded self-aminoacylation for AUUCACCUUGGUCAUCAGGUG [Fam2.2 aminoacylation ribozyme variant] , please?
Result string: 1.9
